Recorded measurements of AUC of viability dose-response curve, one per entry
Tested on: P12-Ichikawa
PROTOCOL DETAILS: AUC of viability dose-response curve (% viability x log10 dose units); higher = less sensitive
PROTOCOL CONDITIONS: RPMI 5 mM glucose + 10% FBS; 48 h
READOUT NAME: AUC of viability dose-response curve

| COMPOUND | TEST TARGET | READOUT NAME | OBSERVED RESULT |
| --- | --- | --- | --- |
| CO[C@H]1CCC(O[C@H]2C[C@H]([C@]3(C)CC[C@]4(C[C@H](O)[C@@H](C)[C@@H]([C@@H](C)/C=C(\C)C(=O)[C@H](C)C[C@H](C)C(=O)[O-])O4)O3)O[C@]3(O[C@@H]([C@H]4O[C@@](O)(CO)[C@H](C)C[C@@H]4C)C[C@@H]3C)[C@@H]2C)O[C@@H]1C (some centres not stated) | P12-Ichikawa | AUC of viability dose-response curve | 366 |
| CC(C(C)N1CC(=O)NC(=O)C1)N1CC(=O)NC(=O)C1 (configuration not stated) | P12-Ichikawa | AUC of viability dose-response curve | 425 |
| Cc1ccc(Nc2cc(-c3cccc(N4C(=O)c5ccccc5C4=O)c3)ncn2)cc1N[S+](C)(=O)[O-] | P12-Ichikawa | AUC of viability dose-response curve | 465 |
| COC1=CC=C(C=C1)/C2=C(O)/C(=O)C3=C(O)C=C(O)C(=C3O2)CC=C(C)C | P12-Ichikawa | AUC of viability dose-response curve | 473 |
| Cc1cc(Nc2ncc3c(n2)N(C)C(=O)N(c2cc(NC(=O)c4cccc(C(F)(F)F)c4)ccc2C)C3)n(C)n1 | P12-Ichikawa | AUC of viability dose-response curve | 374 |
| COc1cc2c(cc1OC)[C@@H]1Cc3ccc(OC)c(OC)c3CN1CC2 | P12-Ichikawa | AUC of viability dose-response curve | 444 |
| O=C(O)CCCCCC(=O)NN=C1CCCC1 | P12-Ichikawa | AUC of viability dose-response curve | 468 |
